All figures here come from patent US9938269B2.

assay: Determination of the microsomal half-life, human liver microsomes; settings: human, liver microsomes, pH 7.4
Structures can show the parent of a compound that is named as a salt.
This section presents molecules with their documented microsomal CLint at 0.5 μM values.

// known answers, use as guide
> print(dat)
                                   molecule                result
1  COc1ccc(-c2ccc(OC)c3c2CN(CCc2cn4ccccc4n2)C3=O)cc1 [compound 457, trifluoroacetate]  100 to 220 µL/min/mg
2  COc1ccc(N2CCS(=O)(=O)CC2)c2c1CN(CCc1ccc3ccccc3n1)C2=O [Example 189]  100 to 220 µL/min/mg
3  O=C1c2c(N3CCOCC3)ccnc2CN1CCc1ccc2ccccc2n1 [Example 119]       < 100 µL/min/mg

Query: microsomal CLint at 0.5 μM for O=C1c2cccc(N3CCS(=O)(=O)CC3)c2C(=O)N1CCc1ccc2ccccc2n1 [Example 250] ?
Response: 100 to 220 µL/min/mg

Query: What do you have for COc1ccc(-c2cn[nH]c2)c2c1CN(CCc1ccc3ccccc3n1)C2=O [Example 180] ?
Response: 100 to 220 µL/min/mg

Query: What do you have for O=C1c2cccc(-c3ccncc3)c2C(=O)N1CCc1ccc2ccccc2n1 [Example 249, dihydrochloride] ?
Response: 100 to 220 µL/min/mg

Query: What do you have for O=C1c2c(N3CCOCC3)ccnc2CN1CCc1nc2ccc(F)cc2s1 [compound 405] ?
Response: > 220 µL/min/mg

###

This section presents compounds with their documented microsomal CLint at 0.5 μM values.
test: Determination of the microsomal half-life, human liver microsomes; details: human, liver microsomes, pH 7.4

Query: microsomal CLint at 0.5 μM for COc1ccc(-c2cncnc2)c2c1CN(CCc1ccc3ccccc3n1)C2=O [Example 183] ?
Response: 100 to 220 µL/min/mg

Query: What do you have for O=C1c2nccc(-c3ccncc3)c2CN1CCc1cn2ccccc2n1 [compound 452] ?
Response: < 100 µL/min/mg

###

experiment: Determination of the microsomal half-life, rat liver microsomes; settings: rat, liver microsomes, pH 7.4
Structures can show the parent of a compound that is named as a salt.
Reported endpoint: microsomal CLint at 0.5 μM

// known answers, use as guide
> print(dat)
                                   compound                result
1  O=C1c2cccc(-c3ccnnc3)c2CN1CCc1ccc2ccccc2n1 [Example 353]  100 to 220 µL/min/mg
2  COc1ccc(-c2cncnc2)c2c1CN(CCc1cn3ccccc3n1)C2=O [Example 217, trifluoroacetate]       < 100 µL/min/mg
3  COc1ccc(-c2cccnc2)c2c1CN(CCc1ccc3ccccc3n1)C2=O [Example 185, trifluoroacetate]  100 to 220 µL/min/mg

Query: microsomal CLint at 0.5 μM for O=C1c2c(-c3cc[nH]n3)ccnc2CN1CCc1cn2ccccc2n1 [compound 413] ?
Response: < 100 µL/min/mg

Query: What do you have for O=C1c2c(-c3ccoc3)ccnc2CN1CCc1nc2ccccc2s1 [compound 422, trifluoroacetate] ?
Response: 100 to 220 µL/min/mg

Query: What do you have for Cc1ccc2ccc(CCN3Cc4nccc(-c5ccncc5)c4C3=O)nc2c1 [compound 394, trifluoroacetate] ?
Response: > 220 µL/min/mg

Query: What do you have for O=C1c2c(cccc2N2CCOCC2)CN1CCc1cn2ccccc2n1 [Example 310] ?
Response: < 100 µL/min/mg

Query: What do you have for COc1ccc(N2CCOCC2)c2c1CN(CCc1cn3ccccc3n1)C2=O [Example 264, trifluoroacetate] ?
Response: < 100 µL/min/mg
